Tested on: Enterococcus faecium
measurement_notes: Antimicrobial activity against vancomycin-resistant Enterococcus faecium clinical isolate 1091720 by CLSI-based broth microdilution assay
Format: functional
outcome_measure: MIC

-- ask Output measured MIC for this item: C[C@@H](O)[C@H]1C(=O)N2C(C(=O)O)=C(S[C@@H]3CN[C@H](C(=O)N(C)C)C3)[C@H](C)[C@H]12 [MEROPENEM]
-- reply 8 µg/mL

-- ask Please give measured MIC of the following entry: O=C(O)c1ccc(-n2cc(CNc3cc(F)cc(C(F)(F)F)c3)c(-c3ccc(C(F)(F)F)cc3)n2)cc1
-- reply 4 µg/mL

-- ask Please look at this compound and report its MIC: Cc1onc(-c2ccccc2)c1C(=O)N[C@@H]1C(=O)N2[C@@H]1SC(C)(C)[C@@H]2C(=O)O [OXACILLIN]
-- reply > 32 µg/mL

-- ask Assign MIC to the following record: CN[C@H](CC(C)C)C(=O)N[C@H]1C(=O)N[C@@H](CC(N)=O)C(=O)N[C@H]2C(=O)N[C@H]3C(=O)N[C@H](C(=O)N[C@H](C(=O)O)c4cc(O)cc(O)c4-c4cc3ccc4O)[C@H](O)c3ccc(c(Cl)c3)Oc3cc2cc(c3O[C@@H]2O[C@H](CO)[C@@H](O)[C@H](O)[C@H]2O[C@H]2C[C@](C)(N)[C@H](O)[C@H](C)O2)Oc2ccc(cc2Cl)[C@H]1O [VANCOMYCIN]
-- reply 64 µg/mL
